experimental_endpoint: pKi
Hey, just a heads up that pKi is the negative log base 10 of the concentration in molar.

Request: Notebook entry, Glutamate receptor ionotropic, kainate 2 (Homo sapiens) assay: pKi of C=C(c1ccc(C)cc1)[C@H]1CN[C@H](C(=O)O)[C@H]1CC(=O)O = ?
Response: 7.39

Request: API: value(readout=pKi, system=Glutamate receptor ionotropic, kainate 2 (Homo sapiens)) for record C=C(c1cccc(OCCC(c2ccccc2)c2ccccc2)c1)[C@H]1CN[C@H](C(=O)O)[C@H]1CC(=O)O
Response: 5.62

Request: Value wanted: pKi (Glutamate receptor ionotropic, kainate 2 (Homo sapiens)) of entry C=C(c1cccc(C)c1)[C@H]1CN[C@H](C(=O)O)[C@H]1CC(=O)O
Response: 6.91

Request: API: value(readout= pKi, system= Glutamate receptor ionotropic, kainate 2 (Homo sapiens), query= C=C(c1cc(C)cc(C)c1)[C@H]1CN[C@H](C(=O)O)[C@H]1CC(=O)O )
Response: 6.77

Request: Lookup: pKi / Glutamate receptor ionotropic, kainate 2 (Homo sapiens) / C=C(c1ccc(OCCc2ccccc2)cc1)[C@H]1CN[C@H](C(=O)O)[C@H]1CC(=O)O
Response: 6.90

Request: // lookup pKi | system=Glutamate receptor ionotropic, kainate 2 (Homo sapiens) | key= C=C(c1ccccc1)[C@H]1CN[C@H](C(=O)O)[C@H]1CC(=O)O
Response: 7.53
